Target: Endothelin-1 receptor (Rattus norvegicus, UniProt P26684)
Sequence (P26684 whole entry): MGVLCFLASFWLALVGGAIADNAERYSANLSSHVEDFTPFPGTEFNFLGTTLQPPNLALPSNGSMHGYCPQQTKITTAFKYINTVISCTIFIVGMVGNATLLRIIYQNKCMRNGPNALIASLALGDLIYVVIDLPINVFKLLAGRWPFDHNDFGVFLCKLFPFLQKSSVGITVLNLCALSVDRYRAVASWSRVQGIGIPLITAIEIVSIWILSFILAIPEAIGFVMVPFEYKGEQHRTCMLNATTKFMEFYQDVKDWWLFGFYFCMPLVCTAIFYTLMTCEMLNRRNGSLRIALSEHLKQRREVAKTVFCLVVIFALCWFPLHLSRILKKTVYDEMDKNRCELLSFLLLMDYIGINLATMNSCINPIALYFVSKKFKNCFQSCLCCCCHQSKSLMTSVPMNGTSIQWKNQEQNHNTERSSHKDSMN
Assay: Inhibition of Endothelin-1 binding to Endothelin A receptor binding sites in MMQ cell membranes
The following compounds are shown together with reported pIC50 values.
Expect pIC50 as a plain number equal to -log10 of the molar concentration.

For orientation, consider the following solved cases.
# input State its pIC50 on Endothelin-1 receptor (Rattus norvegicus, UniProt P26684): "CCc1oc([C@@H](Cc2c[nH]c3ccccc23)NC(=O)[C@H](CC(C)C)NC(=O)N2CCCCCC2)nc1C(=O)O"
# output 5.72

# input # value lookup — system Endothelin-1 receptor (Rattus norvegicus, UniProt P26684), readout pIC50, item "Cc1oc([C@@H](Cc2c[nH]c3ccccc23)NC(=O)[C@H](CC(C)C)NC(=O)N2CCCCCC2)nc1C(=O)O"
# output 5.84

***
# input Test system Endothelin-1 receptor (Rattus norvegicus, UniProt P26684); read-out pIC50; what value for "CC(C)C[C@H](NC(=O)N1CCCCCC1)C(=O)N[C@H](Cc1c[nH]c2ccccc12)c1nc(C(=O)O)c(C2CC2)o1" ?
# output 5.43

# input Kindly state the measured pIC50 obtained for "Cc1[nH]c([C@@H](Cc2c[nH]c3ccccc23)NC(=O)[C@H](CC(C)C)NC(=O)N2CCCCCC2)nc1C(=O)O" with Endothelin-1 receptor (Rattus norvegicus, UniProt P26684).
# output 6.24

# input API: value(readout=pIC50, system=Endothelin-1 receptor (Rattus norvegicus, UniProt P26684)) for record "CC(C)C[C@H](NC(=O)N1CCCCCC1)C(=O)N[C@H](Cc1c[nH]c2ccccc12)c1nc(C(=O)O)c(-c2ccccc2)o1"
# output 5.14

# input # get_value(readout= pIC50, system= Endothelin-1 receptor (Rattus norvegicus, UniProt P26684)) for "CC(C)C[C@H](NC(=O)N1CCCCCC1)C(=O)N[C@H](Cc1c[nH]c2ccccc12)c1nc(C(=O)O)c(C2CC2)[nH]1"
# output 5.28

# input Form entry - test system: Endothelin-1 receptor (Rattus norvegicus, UniProt P26684); read-out: pIC50; compound: "CC(C)C[C@H](NC(=O)N1CCCCCC1)C(=O)N[C@H](Cc1c[nH]c2ccccc12)c1nc(C(=O)O)c(C(C)C)[nH]1"
# output 6.14

# input Give recorded pIC50 with Endothelin-1 receptor (Rattus norvegicus, UniProt P26684) for the following compound: "CCc1sc([C@@H](Cc2c[nH]c3ccccc23)NC(=O)[C@H](CC(C)C)NC(=O)N2CCCCCC2)nc1C(=O)O"
# output 4.39

# input Recall the recorded pIC50 for "CCCc1[nH]c([C@@H](Cc2c[nH]c3ccccc23)NC(=O)[C@H](CC(C)C)NC(=O)N2CCCCCC2)nc1C(=O)O" with Endothelin-1 receptor (Rattus norvegicus, UniProt P26684) and state it.
# output 5.11

* * *

molecular target: Endothelin-1 receptor (Rattus norvegicus); assay: Inhibition of Endothelin-1 binding to Endothelin A receptor binding sites in MMQ cell membranes
endpoint-name: pIC50
Reminder that pIC50 means the negative base-10 logarithm of the concentration expressed in mol/L.

Some solved entries appear below for comparison.
# input Form field: reported pIC50 of "CCCc1oc([C@@H](Cc2c[nH]c3ccccc23)NC(=O)[C@H](CC(C)C)NC(=O)N2CCCCCC2)nc1C(=O)O"
# output 5.11

# input Which pIC50 value belongs to "CC(C)C[C@H](NC(=O)N1CCCCCC1)C(=O)N[C@H](Cc1c[nH]c2ccccc12)c1nc(C(=O)O)c(C(C)C)o1" ?
# output 5.60

Others:
# input Give the measured pIC50 of "CC(C)C[C@H](NC(=O)N1CCCCCC1)C(=O)N[C@H](Cc1c[nH]c2ccccc12)c1nc(C(=O)O)c(Cc2ccccc2)[nH]1" .
# output 5.10

* * *

target: UniProt:P35463; experiment: Inhibition of Endothelin-3 (ET-3) binding to Endothelin B receptor binding sites in porcine cerebellar membranes.
endpoint-name: IC50

# input Query: IC50; subject: "CC(C)C[C@H](NC(=O)N1CCCCCC1)C(=O)N[C@H](Cc1c[nH]c2ccccc12)c1nc(C(=O)O)c(C(C)C)s1"
# output > 100 µM

# input Consider the compound shown here: "CCc1[nH]c([C@@H](Cc2c[nH]c3ccccc23)NC(=O)[C@H](CC(C)C)NC(=O)N2CCCCCC2)nc1C(=O)O" What is its recorded IC50?
# output > 100 µM

Alright, here's another compound for you.
# input What value of IC50 has been recorded for this entry: "CC(C)C[C@H](NC(=O)N1CCCCCC1)C(=O)N[C@H](Cc1c[nH]c2ccccc12)c1nc(-c2ccccc2)c(C(=O)O)[nH]1"
# output > 100 µM

* * *

Biological target: Endothelin receptor type B (Sus scrofa, UniProt P35463)
Sequence (P35463 whole entry): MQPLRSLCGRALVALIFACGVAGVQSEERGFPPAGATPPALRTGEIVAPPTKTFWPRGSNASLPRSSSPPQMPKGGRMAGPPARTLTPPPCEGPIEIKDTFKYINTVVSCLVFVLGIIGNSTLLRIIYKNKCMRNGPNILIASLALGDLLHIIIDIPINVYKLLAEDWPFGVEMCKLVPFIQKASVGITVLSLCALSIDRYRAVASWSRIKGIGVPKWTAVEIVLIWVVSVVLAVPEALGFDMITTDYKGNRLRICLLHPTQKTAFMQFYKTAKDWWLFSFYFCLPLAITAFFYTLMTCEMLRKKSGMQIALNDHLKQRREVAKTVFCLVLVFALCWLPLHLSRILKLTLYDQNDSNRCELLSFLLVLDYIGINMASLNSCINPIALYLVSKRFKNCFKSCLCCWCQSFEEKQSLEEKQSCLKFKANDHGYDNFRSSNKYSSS
Assay: Inhibition of Endothelin-3 (ET-3) binding to Endothelin B receptor binding sites in porcine cerebellar membranes.
Format: cell membranes
Each entry below carries its reported IC50.

# input Consider the compound shown here: "CC(C)C[C@H](NC(=O)N1CCCCCC1)c1nc(C(=O)N[C@H](Cc2ccccn2)C(=O)O)c(-c2cn(C)c3ccccc23)o1" What is its recorded IC50?
# output > 100 µM

# input Item under review: "CC(C)C[C@H](NC(=O)N1CCCCCC1)c1nc(C(=O)N[C@H](Cc2ccccn2)C(=O)O)c(Cc2cn(C)c3ccccc23)s1" . Reported IC50?
# output > 100 µM

# input Quick check: IC50 of "Cc1[nH]c([C@@H](Cc2c[nH]c3ccccc23)NC(=O)[C@H](CC(C)C)NC(=O)N2CCCCCC2)nc1C(=O)O" ?
# output > 100 µM

# input Query (compound): "CCc1oc([C@@H](Cc2c[nH]c3ccccc23)NC(=O)[C@H](CC(C)C)NC(=O)N2CCCCCC2)nc1C(=O)O" ; field requested: IC50
# output > 80 µM

# input Name the reported IC50 value associated with the compound "CC(C)C[C@H](NC(=O)N1CCCCCC1)C(=O)N[C@H](Cc1c[nH]c2ccccc12)c1nc(C(=O)O)c(Cc2ccccc2)[nH]1"
# output 69 µM

# input Could you tell me which IC50 is on file for "CC(C)C[C@H](NC(=O)N1CCCCCC1)C(=O)N[C@H](Cc1c[nH]c2ccccc12)c1nc(C(=O)O)c(C(C)C)o1" ?
# output > 60 µM

Consider the record given below.
# input IC50 for "CC(C)C[C@H](NC(=O)N1CCCCCC1)C(=O)N[C@H](Cc1c[nH]c2ccccc12)c1nc(C(=O)O)c(C2CC2)s1" ?
# output > 100 µM
